target: Cbk1(F447A)–Mob2 complex (S. cerevisiae, UniProt P53894 251-756; P43563 1-287, F447A); assay: FP
Sequence (P53894 251-756 F447A, chain 1 of 2): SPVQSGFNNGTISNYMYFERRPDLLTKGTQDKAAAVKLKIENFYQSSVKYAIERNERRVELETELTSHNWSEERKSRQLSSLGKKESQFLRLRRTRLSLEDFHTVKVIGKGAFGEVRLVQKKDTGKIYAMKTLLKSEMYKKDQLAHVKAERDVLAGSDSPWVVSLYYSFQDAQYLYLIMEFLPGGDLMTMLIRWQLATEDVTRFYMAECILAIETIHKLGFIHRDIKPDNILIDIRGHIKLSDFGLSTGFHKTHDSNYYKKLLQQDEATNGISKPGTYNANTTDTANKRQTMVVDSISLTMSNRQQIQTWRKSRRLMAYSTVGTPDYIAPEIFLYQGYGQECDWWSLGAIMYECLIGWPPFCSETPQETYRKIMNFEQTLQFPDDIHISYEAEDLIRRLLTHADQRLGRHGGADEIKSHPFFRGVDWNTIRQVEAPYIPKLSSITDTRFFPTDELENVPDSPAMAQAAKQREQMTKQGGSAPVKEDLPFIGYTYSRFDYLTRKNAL
Sequence (P43563 45-287, chain 2 of 2): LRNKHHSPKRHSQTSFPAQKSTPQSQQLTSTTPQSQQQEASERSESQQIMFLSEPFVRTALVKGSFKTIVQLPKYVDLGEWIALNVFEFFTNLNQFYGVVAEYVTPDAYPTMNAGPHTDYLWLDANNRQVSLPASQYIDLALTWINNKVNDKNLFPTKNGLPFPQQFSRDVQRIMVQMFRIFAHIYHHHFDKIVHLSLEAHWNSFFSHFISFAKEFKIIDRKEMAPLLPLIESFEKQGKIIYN
Non-standard residues stand in square brackets, D forms with d. No end group written: not given here. carboxyfluorescein = carboxyfluorescein label; pT = C[C@@H](OP(=O)(O)O)[C@H](N)C(=O)O
experimental_readout: Kd (µM)
The answer is to be given in µM; state only the numeric part.

The value of Kd measured for the binder IGY[pT]YSRFDY-carboxyfluorescein [pepHM-P, carboxyfluorescein-labelled] turned out to be 33

These measurements were taken from paper PMC4428629.
